System: HEK-293T
Test: Multiplex assay against HEK293T
Format: toxicity, cell-based
Settings: human, 24 h, 1 µM, compound concentration 1 uM, replicate 1
Response key: 1 means Population Fragmented Nuclei (%) >= 9%; -1 means Population Fragmented Nuclei (%) < 9%.

Check this compound for Population Fragmented Nuclei (%) at or above 9%: CC(C)(C)c1ccc(CSc2cnn(C(C)(C)C)c(=O)c2Cl)cc1 [PYRIDABEN]
-1

Check this compound for Population Fragmented Nuclei (%) at or above 9%: `CN(C)C(=O)Cn1cc(-c2ccc(-c3nnc4ccccn34)cc2)cn1`
1

Check this compound for Population Fragmented Nuclei (%) at or above 9%: `CC(C)(O)C(=O)N1CCN(c2ccc(C(F)(F)F)c(C3=C(c4c[nH]c5ccccc45)C(=O)NC3=O)c2)CC1`
-1

Check this compound for Population Fragmented Nuclei (%) at or above 9%: O=C(O)CCC/C=C\CC1C(O)CC(O)C1/C=C/C(O)COc1cccc(Cl)c1 (stereo not drawn) [CLOPROSTENOL]
1

Check this compound for Population Fragmented Nuclei (%) at or above 9%: O=C(NCCNCC(O)COc1ccc(O)cc1)N1CCOCC1.O=C(NCCNCC(O)COc1ccc(O)cc1)N1CCOCC1.O=C(O)/C=C/C(=O)O (stereo not drawn) [XAMOTEROL FUMARATE]
-1

Check this compound for Population Fragmented Nuclei (%) at or above 9%: `CCc1nn2c(C)cc(C)nc2c1Cc1ccc(-c2nnc(C3CCNCC3)o2)cc1`
1

---

Test system: U2OS
Experiment: Multiplex assay against U2OS
Format: toxicity, cell-based
Details: human, 48 h, 1 µM, compound concentration 1 uM, replicate 1
endpoint name: Total Cell Count
# print the numeric value only

Name the recorded Total Cell Count of the item `CC(C)(O)C(=O)N1CCN(c2ccc(C(F)(F)F)c(C3=C(c4c[nH]c5ccccc45)C(=O)NC3=O)c2)CC1` in your answer.
377

Name the recorded Total Cell Count of the item `N[C@](CC1c2ccccc2Oc2ccccc21)(C(=O)O)[C@H]1C[C@@H]1C(=O)O` in your answer.
403

Name the recorded Total Cell Count of the item `OCCCNc1cc(-c2ccnc(Nc3cccc(Cl)c3)n2)ccn1` in your answer.
227

Name the recorded Total Cell Count of the item `CCCCC[C@H](O)/C=C/[C@H]1[C@H](O)CC(=O)[C@@H]1CCCCCCC(=O)O` in your answer.
367

Name the recorded Total Cell Count of the item `COCCn1c(C)c(C)s/c1=N\C(=O)C1C(C)(C)C1(C)C` in your answer.
459

Name the recorded Total Cell Count of the item CN(C)C/C=C/C(=O)Nc1ccc(C(=O)N2CCCC(Nc3ncc(Cl)c(-c4c[nH]c5ccccc45)n3)C2)cc1 (stereo not drawn) in your answer.
339

Name the recorded Total Cell Count of the item `CC(C)C[C@H](CO)Nc1nc(S[C@@H](C)c2ccccc2)nc2nc(N)sc12` in your answer.
352

Name the recorded Total Cell Count of the item `CN1CCN(c2ccc(Nc3c4ccccc4nc4ccccc34)cc2)CC1.Cl.Cl.O` in your answer.
231

---

Tested on: HEK-293T
Experiment: Multiplex assay against HEK293T
Format: toxicity, cell-based
Details: human, 12 h, 10 µM, compound concentration 10 uM, replicate 2
endpoint name: Population Hoechst High Intensity Objects (%)

Name the recorded Population Hoechst High Intensity Objects (%) of the item `COc1cc2nc(N3CCN(C(=O)COc4c(OC)cccc4C(C)C)CC3)nc(N)c2cc1OC.Cl.Cl` in your answer.
18%

Name the recorded Population Hoechst High Intensity Objects (%) of the item `COc1cc(C(=O)N2CC[C@@H](O)[C@@H](N)C2)cc2nc(-c3cc4ccccc4n3CC3CC3)n(C)c12.Cl` in your answer.
18%

Name the recorded Population Hoechst High Intensity Objects (%) of the item `C[C@@H]1CC(=O)Nc2cccc(-c3ccc4c(c3)c(-c3cnn(C)c3)nn4C)c2N1` in your answer.
12%

Name the recorded Population Hoechst High Intensity Objects (%) of the item `OCCCNc1cc(-c2ccnc(Nc3cccc(Cl)c3)n2)ccn1` in your answer.
41%

Name the recorded Population Hoechst High Intensity Objects (%) of the item CN1CCN2c3ccccc3Cc3ccccc3C2C1.Cl (centres undefined) [MIANSERIN HYDROCHLORIDE] in your answer.
4%

Name the recorded Population Hoechst High Intensity Objects (%) of the item `CC(C)(O)C(=O)N1CCN(c2ccc(C(F)(F)F)c(C3=C(c4c[nH]c5ccccc45)C(=O)NC3=O)c2)CC1` in your answer.
7%

Name the recorded Population Hoechst High Intensity Objects (%) of the item `Nc1nc(-c2ccco2)c2cnn(Cc3ccccc3F)c2n1` in your answer.
12%

Name the recorded Population Hoechst High Intensity Objects (%) of the item Cc1ccc(OCC(O)C(C)NC(C)C)c2c1CCC2.Cl (centres undefined) in your answer.
18%

Name the recorded Population Hoechst High Intensity Objects (%) of the item CCn1c(-c2nc3cc(C(=O)N4CCCC(N)C4)ccc3n2C)cc2ccccc21.Cl (centres undefined) in your answer.
8%

Name the recorded Population Hoechst High Intensity Objects (%) of the item `Cc1nn(C)c2nc(NNC(=O)Nc3cc(Cl)nc(Cl)c3)cc(C(C)C)c12` in your answer.
3%

Name the recorded Population Hoechst High Intensity Objects (%) of the item Nc1nc(CC(=O)Nc2ccc(CCNC[C@H](O)c3ccccc3)cc2)cs1 [MIRABEGRON] in your answer.
8%

Name the recorded Population Hoechst High Intensity Objects (%) of the item `COc1cc(OC2CCN(C(C)=O)CC2)ccc1C(=O)N1CCC(N2C(=O)OCc3ccccc32)CC1` in your answer.
6%

Name the recorded Population Hoechst High Intensity Objects (%) of the item `CN1CCC(C(=O)c2cccc(NC(=O)c3c(F)cc(F)cc3F)n2)CC1` in your answer.
10%

Name the recorded Population Hoechst High Intensity Objects (%) of the item Cl.Cl.OCCOCCN1CCN(C(c2ccccc2)c2ccc(Cl)cc2)CC1 (centres undefined) [HYDROXYZINE HYDROCHLORIDE] in your answer.
19%

Name the recorded Population Hoechst High Intensity Objects (%) of the item COc1cc2nc(N3CCN(C(=O)c4ccco4)CC3)nc(N)c2cc1OC.Cl [PRAZOSIN HYDROCHLORIDE] in your answer.
9%

Name the recorded Population Hoechst High Intensity Objects (%) of the item O=c1nc2[nH]c3ccccc3nc-2c(=O)[nH]1 [ALLOXAZINE] in your answer.
15%

Name the recorded Population Hoechst High Intensity Objects (%) of the item O=C(O)CCC/C=C\CC1C(O)CC(O)C1/C=C/C(O)COc1cccc(Cl)c1 (centres undefined) [CLOPROSTENOL] in your answer.
13%

Name the recorded Population Hoechst High Intensity Objects (%) of the item `Cn1cc(C(=O)OCC2CCN(CCNS(C)(=O)=O)CC2)c2ccccc21` in your answer.
10%

Name the recorded Population Hoechst High Intensity Objects (%) of the item COc1ccc2c(c1OCc1ccccc1)C[C@@H](C(=O)O)N(C(=O)C(c1ccccc1)c1ccccc1)C2 [OLODANRIGAN] in your answer.
3%

---

System: HEK-293T
Test: Multiplex assay against HEK293T
Format: toxicity, cell-based
Details: human, 48 h, 1 µM, compound concentration 1 uM, replicate 1
endpoint name: Total Cell Count

Name the recorded Total Cell Count of the item `Cc1cc(NC(=O)NCCN2CCC(O)(Cc3ccccc3)CC2)c2ccccc2n1` in your answer.
938

Name the recorded Total Cell Count of the item CCC(=O)OCC(=O)[C@@]1(OC(=O)CC)[C@@H](C)C[C@H]2[C@@H]3CCC4=CC(=O)C=C[C@]4(C)[C@@]3(Cl)[C@@H](O)C[C@@]21C [BECLOMETHASONE DIPROPIONATE] in your answer.
742

Name the recorded Total Cell Count of the item `CC(F)(F)CN1CCOc2c(nn(-c3ccccc3Cl)c2-c2ccc(Cl)cc2)C1=O` in your answer.
1015

Name the recorded Total Cell Count of the item CCn1c(-c2nc3cc(C(=O)N4CCCC(N)C4)ccc3n2C)cc2ccccc21.Cl (stereo not drawn) in your answer.
771

Name the recorded Total Cell Count of the item O=C(O)CCC/C=C\CC1C(O)CC(O)C1/C=C/C(O)COc1cccc(Cl)c1 (stereo not drawn) in your answer.
956

Name the recorded Total Cell Count of the item COCCCN1CCC(NC(=O)c2cc(Cl)c(N)c3c2OCC3)CC1 [PRUCALOPRIDE] in your answer.
1001

Name the recorded Total Cell Count of the item `S=C(NCCCc1c[nH]cn1)NCCCN(Cc1ccc(Cl)c(Cl)c1)c1ccc(Br)cn1` in your answer.
307

Name the recorded Total Cell Count of the item `Cc1cc(O)c(-c2ccc([C@@H](C)CN(C)C)cc2)c2c1[nH]c(=O)c1sccc12` in your answer.
249

Name the recorded Total Cell Count of the item `COc1ccc2[nH]c(I)c(CCNC(C)=O)c2c1` in your answer.
770

Name the recorded Total Cell Count of the item `CSc1nc(NC2CCCC2)c([N+](=O)[O-])c(NC2CCCC2)n1` in your answer.
775

Name the recorded Total Cell Count of the item `CCCCC[C@H](O)/C=C/[C@H]1[C@H](O)CC(=O)[C@@H]1CCCCCCC(=O)O` in your answer.
1005

Name the recorded Total Cell Count of the item CN(C)C/C=C/C(=O)Nc1ccc(C(=O)N2CCCC(Nc3ncc(Cl)c(-c4c[nH]c5ccccc45)n3)C2)cc1 (stereo not drawn) in your answer.
239

Name the recorded Total Cell Count of the item `O=c1ccc2ccc(OCCCCN3CCN(c4cccc5sccc45)CC3)cc2[nH]1` in your answer.
679

Name the recorded Total Cell Count of the item `COCCn1c(C)c(C)s/c1=N\C(=O)C1C(C)(C)C1(C)C` in your answer.
649

Name the recorded Total Cell Count of the item `C[C@H](NC(=O)CNC(=O)c1cccc(Cl)c1)c1ccccc1` in your answer.
984

Name the recorded Total Cell Count of the item `CCCCCCNC(=O)Nc1ccc(S(=O)(=O)Nc2ccc(CCNC[C@H](O)COc3ccc(O)cc3)cc2)cc1` in your answer.
1052

Name the recorded Total Cell Count of the item `Cc1c(Cc2ccc3ccccc3n2)c2cc(F)ccc2n1CC(=O)O` in your answer.
799

Name the recorded Total Cell Count of the item `Cn1cc(C(=O)OCC2CCN(CCNS(C)(=O)=O)CC2)c2ccccc21` in your answer.
1090
